Data credit: the supplement of paper PMC9135407

# System: primary human hepatic stellate cells (donor 1)
# test.description: scaled lipid accumulation score (0 = DMSO-like, 1 = nortriptyline-like); higher = stronger HSC inactivation (lipid re-accumulation), active = hit call of the paper
# experimental.context: library stock concentration: 5.9 mM; 48 h
Counter-ions that a name gives are not always drawn. Out of some 5,800 compounds screened, about 620 (11%) showed activity. For the sample, actives were picked, then their nearest neighbours and some compounds at random.
Documented scaled lipid accumulation score across a set of molecules
property.name: scaled lipid accumulation score

# molecule, measured.result
records = [
    ("CC(COc1ccccc1)N(CCCl)Cc1ccccc1 (stereo not given) [Phenoxybenzamine hydrochloride]", "≤ 0 (inactive)"),
    ("CN1CCN(C(c2ccccc2)c2ccc(Cl)cc2)CC1 (stereo not given) [Chlorcyclizine hydrochloride]", "0.391 (inactive)"),
    ("CN1[C@@H](CC(=O)c2ccccc2)CCC[C@H]1C[C@H](O)c1ccccc1", "≤ -0.006 (inactive)"),
    ("CN(C)c1ccc2nc3ccc(=[N+](C)C)cc-3sc2c1", "0.252 (inactive)"),
    ("CN(C)CC/C=C1/c2ccccc2COc2ccc(CC(=O)O)cc21", "≤ -0.006 (inactive)"),
]

* * *

# Tested on: primary human hepatic stellate cells (donor 1)
# test.description: scaled lipid accumulation score (0 = DMSO-like, 1 = nortriptyline-like); higher = stronger HSC inactivation (lipid re-accumulation), active = hit call of the paper
# experimental.context: library stock concentration: 10 mM; 48 h
About 620 (11%) of roughly 5,800 compounds showed activity. What follows is part of a selection rich in actives, with near analogues and random picks from the rest.

# compound, scaled lipid accumulation score
records = [
    ("CCC(=O)Oc1ccc2c(c1)CC[C@@H]1[C@@H]2CC[C@]2(C)[C@@H](OC(=O)CC)CC[C@@H]12", "≤ 0 (inactive)"),
    ("O/N=C/c1ccc(-c2ccc(O)c(F)c2)c(Cl)c1O", "0.02 (inactive)"),
    ("NC(C(=O)O)c1ccc(C(=O)O)c(C(=O)O)c1 (racemic)", "≤ -0.006 (inactive)"),
    ("CCN(CCO)CCCOc1ccc2c(Nc3cc(CC(=O)Nc4cccc(F)c4)[nH]n3)ncnc2c1", "≤ 0 (inactive)"),
    ("O=C(O)CC/C=C\\C[C@H]1CO[C@@H](c2ccccc2Cl)O[C@H]1c1ccccc1O", "≤ 0 (inactive)"),
    ("CCC1(C)OC(=O)N(C)C1=O (stereo not given)", "≤ 0 (inactive)"),
    ("CC(C)(C(=O)NCC(F)(F)C(F)(F)F)C(=O)N[C@@H]1C(=O)Nc2ccccc2-c2ccccc21", "≤ 0 (inactive)"),
    ("N#CSc1cc(SC#N)c(N)nc1N", "0.53 (inactive)"),
    ("CN(CC(=O)N(Cc1ccc(C2CCCCC2)cc1)c1ccc(C(=O)O)cc1)S(=O)(=O)c1c(F)c(F)c(F)c(F)c1F", "0.483 (inactive)"),
    ("Nc1cc2c(ncn2CCOCP(=O)(O)O)c(=O)[nH]1 [PMEG hydrate]", "≤ -0.055 (inactive)"),
]

* * *

# key: entry, value: scaled lipid accumulation score
# System: primary human hepatic stellate cells (donor 1)
# test.description: scaled lipid accumulation score (0 = DMSO-like, 1 = nortriptyline-like); higher = stronger HSC inactivation (lipid re-accumulation), active = hit call of the paper
# experimental.context: library stock concentration: 7 mM; 48 h
Where a name gives a salt, the structure may show the parent alone. Screen size: about 5,800 compounds; about 620 (11%) showed activity. Only a selection was taken, and actives are over-represented in it overall.

# compound, scaled lipid accumulation score
records = [
    ("COc1ccc(C(=O)/C(Br)=C\\C(=O)O)cc1", "≤ -0.006 (inactive)"),
    ("CC1=C(/C=C/C(C)=C/C=C/C(C)=C/CO)C(C)(C)CCC1", "≤ 0 (inactive)"),
    ("CN1CCC(=C2c3ccccc3C=Cc3ccccc32)CC1", "0.351 (inactive)"),
    ("CC(CN1c2ccccc2Sc2ccccc21)N(C)C (centres undefined) [Promethazine HCl]", "0.609 (inactive)"),
]
